tgt: Hck (UniProt P08631)
Sequence (P08631 whole entry, looked up): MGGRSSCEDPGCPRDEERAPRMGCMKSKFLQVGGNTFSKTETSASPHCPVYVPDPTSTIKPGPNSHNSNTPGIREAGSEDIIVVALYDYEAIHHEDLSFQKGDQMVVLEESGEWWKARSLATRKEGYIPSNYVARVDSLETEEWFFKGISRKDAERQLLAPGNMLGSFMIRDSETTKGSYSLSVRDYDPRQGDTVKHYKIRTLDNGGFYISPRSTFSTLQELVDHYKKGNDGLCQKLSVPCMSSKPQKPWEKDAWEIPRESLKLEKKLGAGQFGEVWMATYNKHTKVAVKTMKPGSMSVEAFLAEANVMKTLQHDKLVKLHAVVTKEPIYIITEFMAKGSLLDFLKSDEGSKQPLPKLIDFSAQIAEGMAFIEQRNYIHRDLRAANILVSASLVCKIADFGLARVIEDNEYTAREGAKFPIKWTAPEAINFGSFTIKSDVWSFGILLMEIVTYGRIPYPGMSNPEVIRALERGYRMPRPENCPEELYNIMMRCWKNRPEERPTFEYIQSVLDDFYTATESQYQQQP
procedure.summary: phosphorylation enrichment, bacterial display (enrichment ratio); higher = better substrate or ligand; peptides without Tyr show the background;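 note: 11-residue human phosphosite peptides and single-mutation variants displayed on the E. coli surface, counted by deep sequencing, each peptide's frequency after selection divided by its frequency in the unselected input library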;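 note: frequency after pTyr selection over input frequency; kinase dosed for 20-30% of maximal phosphorylation in three min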
experimental.readout: phosphorylation enrichment

Look at each sequence and report its phosphorylation enrichment.
1. TRHDEYLEVTK [MAP1A_Y2217]
2. FGLQAYTEVKT [ALDH2_Y502_YF]
3. GRRNTYFASIA [ACADM_Y352_YF]
4. FIILIYAMKKK [SLCO1B1_Y645_YF]
5. VPANRYDLLRL [FARSB_Y72_C76R]
6. DKTGEYPVPLI [ACADM_Y73]
7. TVFSDYLHPQY [CCPG1_Y569]

## Result
[0.399, 0.657, 0.423, 0.465, 0.429, 0.49, 0.457]

Would you mind giving phosphorylation enrichment for every sequence in the list below?
1. IHTDAYVRAMT [RPE65_Y89_R85H]
2. MVTSGYKAKMI [EFR3A_Y447_T451M]
3. QTEAEYRFIFM [PTPN11_Y511_Q510E_YF]
4. SMEGLYSSTQD [CLIC5_Y111]
5. AHADEYGAEAL [HBA1_Y25_G23D]
6. TVLWWYTGTRP [UGT1A1_Y337_R336W]

## Result
1. 0.397
2. 0.39
3. 0.626
4. 4.12
5. 0.511
6. 0.41
